target: hFc-hROR2-T245 (recombinant human ROR2 extracellular domain fused to human Fc) (human) (UniProt Q01974); assay: SPR (Biacore X100), hFc-hROR2 captured by anti-human Fc on CM5, Fab as analyte, 1:1 Langmuir model
Sequence (Q01974 55-394 limits assumed, form in doubt): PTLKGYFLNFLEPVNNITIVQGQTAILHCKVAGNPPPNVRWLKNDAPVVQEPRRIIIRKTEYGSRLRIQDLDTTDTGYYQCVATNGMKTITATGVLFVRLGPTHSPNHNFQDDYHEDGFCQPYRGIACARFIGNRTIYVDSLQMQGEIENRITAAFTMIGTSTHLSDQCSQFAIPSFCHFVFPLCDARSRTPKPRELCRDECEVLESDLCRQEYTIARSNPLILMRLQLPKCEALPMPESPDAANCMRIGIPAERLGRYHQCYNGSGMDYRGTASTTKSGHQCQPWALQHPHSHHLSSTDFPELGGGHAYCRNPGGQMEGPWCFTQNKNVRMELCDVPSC
Kindly return true if reported kon is no lower than 80000 M⁻¹ s⁻¹; return false if it is lower.

Binder	Group Label
chimeric rabbit/human Fab ERR2-TOP2 (Fab, V domains shown) VH: QSLEESGGRLVTPGTPLTLTCTVSGFSLSSYAISWVRQAPGKGLEWIGTIGTRGDTAYANWAKGRFTISKTSTTVTLKMTSPTTEDTATYFCARELVAGGGSDLWGPGTLVTVSS VL: DVVMTQTPSSVSAVVGGTVTIKCQASQSITSWLSWYQQKPGQPPKLLIYGASHLASGVPSRFKGSGYGTEFTLTISGIQREDAATYYCLGGYLSASYQTAFGGGTKVEIK	false
chimeric rabbit/human Fab XBR2-327 (Fab, V domains shown) VH: QEQLKESGGGLFKPTDTLTLTCTVSGFSLSSGAISWVRQAPGNGLEYIGFVNSLGNTYYANWAKSRSAITRNTNENTVTLKMTSLAAADTATYFCAKDYGNWAFDPWGPGTLVTVSS VL: DPVLTQTPSSVSAAVGGTVAINCQASQSISSYLSWYQQKPGQPPKLLIYGASKLASGVPSRFSGSGSGTEYTLTISGVQREDAATYYCLGGYASASYRTAFGGGTKLEIK	true
chimeric rabbit/human Fab ERR2-317 (Fab, V domains shown) VH: QSLEESGGRLVTPGTPLTLTCTASGFSLSSYDMIWVRQAPGKGLEYIGIINAGGNTYYASWAKGRFTISRTSTTVDLKMTSPTTEDTATYFCARGSSWTGDIWGPGTLVTVSS VL: DPVLTQTPSSTSAAVGGTVTIKCQASQSISSYLSWYQQKPGQPPKQLIYAASTLASGVPSRFKGSGSGTEYTLTISGVQREDAATYYCLGGYASASYQTAFGGGTKVEIK	true
chimeric rabbit/human Fab XBR2-TOP72 (Fab, V domains shown) VH: QEQLEESGGRLVTPGTPLTLTCTVSGIDLSSNAMSWVRQAPGKGLEYVGFINGGGGVHYASWARGRFTISKTSTTVDLKITSPTTEDTATYFCARAGTTYYTSFNLWGPGTLVTISS VL: QFVLTQSPSASAALGSSAKLTCTLSSAHKTYTIAWYQQQQGEAPRLLMMLRTDGSYTKGTGVPDRFSGSSSGADRYLIISSVQADDAAGYYCGADYSGGYVFGGGTQLTVTG	false
chimeric rabbit/human Fab ERR2-308 (Fab, V domains shown) VH: QEQLEESGGRLVTPGTPLTLTCAVSGFSLSNYAMGWVRQAPGEGLEYIGWISAGGGAYYASWVNGRFTISKTSSTVDLKMTSLTAADTATYFCARGASNGCDLWGPGTLVTVSS VL: DPMLTQTPSSVSAVVGGTVTIKCQASQSITSWLSWYQQKPGQPPKLLIYGASHLASGVPSRFKGSGYGTEFTLTISGIQREDAATYYCLGGYSNSDIVFGGGTELEIL	false
